Protocol Description: Next Generation Impactor (NGI) testing of pMDI prototype formulations
Format: physicochemical
Run Conditions: Formulation 2
We begin with a simple list: items and their reported GSD.
// print number alone

Here's what some known entries look like.
Compound	GSD
CCCCCc1cc(O)c(C/C=C(\C)CCC=C(C)C)c(O)c1	3
C=C(C)[C@@H]1CCC(C)=C[C@H]1c1c(O)cc(CCCCC)cc1O [CBD, cannabidiol, reference compound]	3
CCCCCc1cc(O)c2c(c1)OC(C)(C)c1ccc(C)cc1-2	3

Continue with the compound presented below.
// GSD value for C[N+]1(C)CCC(OC(=O)C(O)(c2ccccc2)C2CCCC2)C1 (stereo not shown) [Glycopyrronium, glycopyrronium, reference compound] : 2
